Cited source: the supplement of paper PMC12317010

Please respond with reported collision cross section in nitrogen for every item in the list.
Assay: collision cross section in nitrogen (drift tube, single-field); higher = larger gas-phase ion size;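 further: chemical standards at 10 µM analysed by drift tube IMS-QTOF MS in about 3.95 torr nitrogen, mean of duplicate injections differing ≤1%, mass error below 10 ppm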
Conditions: ion type: [M-H]; ion source: ESI; ion mode: Negative
Counter-ions that a name gives are not always drawn.
Express the result in Å² but write the number alone.

Record summary for "CN[C@H]1CC[C@@H](c2ccc(Cl)c(Cl)c2)c2ccc(S(N)(=O)=O)cc21" : reported collision cross section in nitrogen = 197.2

Record summary for Nc1ccc2c(c1)C(=O)c1ccccc1C2=O [2-Aminoanthraquinone] : reported collision cross section in nitrogen = 144.9

Record summary for "CC(C)(c1ccccc1)c1cc(-n2nc3ccccc3n2)c(O)c(C(C)(C)c2ccccc2)c1" : reported collision cross section in nitrogen = 222.1

Record summary for Clc1cccc(Cl)c1NC1=NCCN1 [Clonidine hydrochloride] : reported collision cross section in nitrogen = 145.8

Record summary for CCCC(=NOCC)C1=C(O)CC(CC(C)SCC)CC1=O (centres undefined) [Sethoxydim] : reported collision cross section in nitrogen = 178.5

Record summary for O=[N+]([O-])c1ccc(O)cc1 [4-Nitrophenol] : reported collision cross section in nitrogen = 120.6

Record summary for O=C(O)c1cc[c]([Hg][Cl])cc1 [4-Chloromercuribenzoic acid] : reported collision cross section in nitrogen = 143

Record summary for Cc1cccc(NC(=S)N(C)C)c1 [Methiuron] : reported collision cross section in nitrogen = 147.1

Record summary for C=C(c1ccc(C(=O)O)cc1)c1cc2c(cc1C)C(C)(C)CCC2(C)C [Bexarotene] : reported collision cross section in nitrogen = 208.7
